test: RPL19A-GFP modulators, yeast TOR pathway, confirmation, cell-based, S. cerevisiae, flow cytometry, cherry picks, mother/daughter gates (AID 2270); details: S. cerevisiae RPL19A-GFP strain, 3 h, measured here: mother cell gate, at 10 µM, stronger effect = lower value, 100 = same GFP as DMSO wells
Readout: GFP response vs DMSO (%)
The answer is to be given in %; state only the numeric part.

Example cases with answers are listed next.
INSERT INTO results (compound, readout, unit_of_measurement, quantitative_result) VALUES
  ('CCCCC(=O)O[C@]1(C(=O)CO)CC[C@H]2[C@@H]3CCC4=CC(=O)CC[C@]4(C)[C@H]3[C@@H](O)C[C@@]21C', 'GFP response vs DMSO', '%', 99),
  ('C/C(=N\NC(=O)c1ccc(Cl)c(Cl)c1)c1ccccn1', 'GFP response vs DMSO', '%', 88.5),
  ('Cn1cnnc1SCC(=O)Nc1nc(-c2ccc(F)cc2)cs1', 'GFP response vs DMSO', '%', 101),
  ('COc1ccc(-c2cc(=O)n(-c3nc4ccccc4[nH]3)[nH]2)cc1', 'GFP response vs DMSO', '%', 99.3),
  ('O=C(Nc1nccs1)C(c1ccccc1)N1CCCCC1 (stereo not given)', 'GFP response vs DMSO', '%', 104),
  ('CC(C)c1nnc(-c2ccc(Cl)cc2)c(N(C)C)n1', 'GFP response vs DMSO', '%', 97.8);

Looking for the measured GFP response vs DMSO of O=C(OCc1cc(Cl)ccc1OC(F)F)c1ccc([N+](=O)[O-])o1 , can you help? 94

Looking for the measured GFP response vs DMSO of CCOc1cc(C)c(S(=O)(=O)N2CCCC2)cc1C , can you help? 91.1

Looking for the measured GFP response vs DMSO of COc1ccc(S(=O)(=O)NCC(=O)N(CC(=O)NCc2ccco2)Cc2ccc(F)cc2)cc1 , can you help? 101

Looking for the measured GFP response vs DMSO of O=C(N/N=C/c1ccc(-c2ccc(Br)cc2)o1)c1ccc2c(c1)OCO2 , can you help? 101

* * *

Documented percent response of DMSO control across a set of compounds
assay: modulators of CIT2-GFP expression in yeast, primary screen, S. cerevisiae, GFP fusion, multiplex flow cytometry (AID 1870); settings: 3 h, at 10 µM, stronger effect = higher value;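 further: barcoded CIT2-GFP strain pooled with four other GFP strains with rapamycin as positive control; median GFP fluorescence per well over plate mean of DMSO wells so 100% = DMSO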
The answer is to be given in %; state only the numeric part.

Example cases with answers are listed next.
INSERT INTO results (compound, readout, unit_of_measurement, quantitative_result) VALUES
  ('O=C(CCCCC(=O)NC1CCCC1)NC1CCCC1', 'percent response of DMSO control', '%', 105),
  ('COc1ccc(-c2noc(CCc3ccccc3)n2)cc1', 'percent response of DMSO control', '%', 90),
  ('CO/N=C(\C(=O)N[C@@H]1C(=O)N2C(C(=O)O)=C(COC(C)=O)CS[C@H]12)c1csc(N)n1 (stereo in doubt)', 'percent response of DMSO control', '%', 94.9),
  ('COc1ccc(CC(=O)c2c(O)cc(O)cc2O)cc1OC', 'percent response of DMSO control', '%', 98.8),
  ('C/C(=N/N1CCN(Cc2cccc3ccccc23)CC1)c1cccnc1', 'percent response of DMSO control', '%', 98.8),
  ('O=c1[nH]c(=O)n([C@H]2C[C@H](O)[C@@H](CO)O2)cc1F', 'percent response of DMSO control', '%', 101);

Looking for the measured percent response of DMSO control of CC(=O)OCC1OC(n2ccc(=O)[nH]c2=O)C(O)C1O (stereo unspecified) , can you help? 122

Looking for the measured percent response of DMSO control of COc1ccc(-c2[nH]ncc2C=O)cc1OC , can you help? 106

Looking for the measured percent response of DMSO control of COc1cc(C2CC(=O)NC3=C2C(=O)CC(C)(C)C3)ccc1O (stereo unspecified) , can you help? 105

Looking for the measured percent response of DMSO control of Cc1cc(C)c2c(CCl)cc(=O)oc2c1 , can you help? 107

Looking for the measured percent response of DMSO control of O=C1C2C3C=CC(C4CC34)C2C(=O)N1/N=C/c1ccc(-c2ccc([N+](=O)[O-])cc2)o1 (stereo unspecified) , can you help? 101

* * *

Documented binding (% of control) across a set of molecules
tested on: anti-desmoglein-3 scFv antibody binding to human DSG3; assay: inhibitors of anti-DSG3 scFv binding to DSG3, pilot screen, biochemical, validation compound set, bead-based, flow cytometry (AID 588368); conditions: Protein G beads, DSG3-Fc, scFv-GFP binding, at 10 µM, stronger effect = lower value;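 further: signal is the median channel fluorescence of bead-bound GFP antibody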
The answer is to be given in %; state only the numeric part.

Example cases with answers are listed next.
INSERT INTO assay_data (molecule, test_target, unit_of_measurement, quantitative_result) VALUES
  ('CCCCC[C@H](O)/C=C/[C@@H]1[C@@H](CCCCCCC(=O)O)[C@@H](O)C[C@H]1O', 'anti-desmoglein-3 scFv antibody binding to human DSG3', '%', 99.8),
  ('O=C(NCC1CCCCN1)c1cc(OCC(F)(F)F)ccc1OCC(F)(F)F (stereo unspecified)', 'anti-desmoglein-3 scFv antibody binding to human DSG3', '%', 103),
  ('CN(CCc1cnn(C)c1)Cc1nc(CC2CC2)no1', 'anti-desmoglein-3 scFv antibody binding to human DSG3', '%', 104),
  ('COc1cccc(OCc2cc(C3Nc4ccccc4C(=O)N3Cc3ccco3)ccc2OC)c1 (stereo unspecified)', 'anti-desmoglein-3 scFv antibody binding to human DSG3', '%', 96.5),
  ('CC(C)[N+]1(C)[C@@H]2CC[C@H]1CC(OC(=O)C(CO)c1ccccc1)C2 (stereo partly specified)', 'anti-desmoglein-3 scFv antibody binding to human DSG3', '%', 102),
  ('COC(=O)c1cc(-c2ccc(C)o2)nc2ccccc12', 'anti-desmoglein-3 scFv antibody binding to human DSG3', '%', 108);

Looking for the measured binding (% of control) of CCN(CC)Cc1c[nH]c2c(C(=O)OC)cccc12 , can you help? 105

Looking for the measured binding (% of control) of O=C1OC(c2ccc(O)cc2)(c2ccc(O)cc2)c2ccccc21 , can you help? 103

Looking for the measured binding (% of control) of O=C(CCN1CCC(c2ccccc2)C1)c1ccc2c(c1)OCCO2 (stereo unspecified) , can you help? 103

Looking for the measured binding (% of control) of COc1cc(C(=O)OCCCN(C)C)cc(OC)c1OC , can you help? 108

Looking for the measured binding (% of control) of Cc1oc(/C=N/NC(=O)CC2(C)OCCO2)cc1Br , can you help? 104

* * *

Documented GFP response, % of DMSO across a set of compounds
test: modulators of CIT2-GFP expression in yeast, confirmation, S. cerevisiae, GFP fusion, cherry picks, mother/daughter gates (AID 2274); details: S. cerevisiae CIT2-GFP strain, flow cytometry, 3 h; measured here: mother cell gate; at 10 µM; stronger effect = higher value
The answer is to be given in %; state only the numeric part.

INSERT INTO assay_data (smi, quantitative_result) VALUES
  ('O=C(O)c1ccc(N/N=C/C(Br)=C/c2ccccc2)cc1', 85.1),
  ('OCc1ccccc1SSc1ccccc1CO', 99.8),
  ('CCn1c(=O)c(C(=O)Nc2nc3ccccc3[nH]2)c(O)c2ccccc21', 109),
  ('Cc1ccc(-c2noc(CCC(=O)Nc3ccccc3C)n2)cc1', 98.2);

Looking for the measured GFP response, % of DMSO of CCCc1cc(NCc2ccccn2)n2nc(C)c(-c3ccccc3)c2n1 , can you help? 77.3

Looking for the measured GFP response, % of DMSO of Cc1onc(-c2c(Cl)cccc2Cl)c1NC(=O)NNc1c(Cl)cncc1Cl , can you help? 97.3

* * *

experiment: modulators of CIT2-GFP expression in yeast, confirmation, S. cerevisiae, GFP fusion, cherry picks, mother/daughter gates (AID 2274); details: S. cerevisiae CIT2-GFP strain, flow cytometry, 3 h; at 10 µM
Activity calls are given as the source filed them.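 Rule for the calls: active = GFP response above 150% of the DMSO level; inconclusive = fewer than 70 events counted for a yeast strain; inactive = the rest.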
Assign a class; possible classes are active, inactive

Consider the following illustrative entries.
INSERT INTO assay_data (molecule, group) VALUES
  ('CN1/C(=C\C(=O)c2cccc(S(=O)(=O)N3CCCCC3)c2)C(C)(C)c2ccccc21', 'inactive'),
  ('O=C(Cc1ccc(-c2ccccc2)cc1)OCC(=O)N1CCCC1=O', 'inactive'),
  ('COc1cc(/C=C/C(=O)c2c(O)ccc3c(C)cc(=O)oc23)ccc1O', 'inactive'),
  ('CCn1cc([N+](=O)[O-])c(C(=O)Nc2nc(-c3ccc(C)c(C)c3)c(C)s2)n1', 'inactive');

With those in mind, consider the next molecule.
Check the results log: what was the call for O=C(NOC(=O)c1ccccc1)c1ccccc1 ? inactive

Sourced from PubChem BioAssay
